MEASURED PARAMETER: melting point

Take a look at these entries with their results.
[
  {
    "SMILES STRING": "CC(C)Oc1ccc(CCCOc2cc(CCC(=O)O)n(-c3ccccc3)n2)c(OCc2ccc(C(F)(F)F)cc2)c1",
    "EXPERIMENTAL VALUE": "118 to 119 °C"
  },
  {
    "SMILES STRING": "CN(C(=O)Nc1nc(OCC(F)(F)F)nc(OCC(F)(F)F)n1)c1ccc(C(F)(F)F)cc1",
    "EXPERIMENTAL VALUE": "130 to 132 °C"
  },
  {
    "SMILES STRING": "O=[N+]([O-])c1ccc2nc(-c3ccccc3)cc(Cl)c2c1",
    "EXPERIMENTAL VALUE": "166 to 167 °C"
  }
]

API: the following record is the query input.
Exercise: Provide only the value of recorded melting point for N#CCNC(=O)c1ccnc(Cl)c1
Solution: 131 to 132 °C
